- Tested Target: estrogen receptor (ERα) (Homo sapiens, UniProt P03372)
- Construct: endogenous in cells; host or cells: MCF7 cells (ATCC)
- Sequence (P03372 whole entry): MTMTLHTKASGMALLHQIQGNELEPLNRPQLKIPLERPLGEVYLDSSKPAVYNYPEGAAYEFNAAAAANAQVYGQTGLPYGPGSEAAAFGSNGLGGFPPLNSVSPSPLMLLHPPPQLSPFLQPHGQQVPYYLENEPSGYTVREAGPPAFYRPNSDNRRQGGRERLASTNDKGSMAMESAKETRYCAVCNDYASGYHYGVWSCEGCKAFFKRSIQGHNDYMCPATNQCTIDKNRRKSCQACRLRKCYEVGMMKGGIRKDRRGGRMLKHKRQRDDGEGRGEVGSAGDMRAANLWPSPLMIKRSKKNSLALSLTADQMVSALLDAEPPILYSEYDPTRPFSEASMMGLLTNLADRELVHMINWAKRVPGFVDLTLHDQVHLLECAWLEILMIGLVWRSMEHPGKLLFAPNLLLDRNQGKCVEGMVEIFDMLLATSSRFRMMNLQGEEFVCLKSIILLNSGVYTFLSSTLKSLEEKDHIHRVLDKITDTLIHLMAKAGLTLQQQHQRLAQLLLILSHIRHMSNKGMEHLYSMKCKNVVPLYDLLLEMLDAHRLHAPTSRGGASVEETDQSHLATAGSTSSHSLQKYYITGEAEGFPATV
- Assay Details: Estrogen receptor degradation activity (ERα in cell western assay, MCF7 breast cancer cells)
- Format: cell-based
- Test Settings: concentration which degrades 50% of the estrogen receptor, 4 hours post compound addition, read-out: Degradation IC50
Measured Property: DC50 (nM)

1) Cc1cc(F)cc(C)c1C(=O)c1sc2cc(C(=O)O)ccc2c1Oc1ccc(CC2CN(CCCF)C2)cc1    3
2) Cc1cc(F)cc(C)c1C(=O)c1sc2cc(C(=O)O)ccc2c1Oc1ccc(NC2CN(CCCF)C2)cc1    5
3) Cc1cc(F)cc(C)c1C(=O)c1sc2cc(C(=O)O)ccc2c1Oc1ccc(N[C@H]2CCN(CCCF)C2)cc1    3

[A] Cc1cc(F)cc(C)c1C(=O)c1sc2cc(C(=O)O)ccc2c1Oc1ccc(O[C@H]2CCN(CCCF)C2)cc1
[B] Cc1cc(F)cc(C)c1C(=O)c1sc2cc(C(=O)O)ccc2c1Oc1ccc(C=C2CN(CCCF)C2)cc1
Could you check which of A and B has a smaller value for DC50? The response must carry the label of the picked entry.
B
(B: 0.3 nM, A: 12 nM)

====

- Tested Target: estrogen receptor (ERα) (Homo sapiens, UniProt P03372)
- Construct: endogenous in cells; host or cells: MCF7 cells (ATCC)
- Assay Details: Estrogen receptor degradation activity (ERα in cell western assay, MCF7 breast cancer cells)
- Assay type: cell-based
- Test Settings: 0.3 μM, 4 hours, relative to fulvestrant (0.1 μM) and DMSO
Measured Property: percent ER degradation at 0.3 µM (%)

1) Cc1cc(F)cc(C)c1C(=O)c1sc2cc(C(=O)O)ccc2c1Oc1ccc(OC2CN(CCCF)C2)cc1    92
2) Cc1cc(F)cc(C)c1C(=O)c1sc2cc(C(=O)O)ccc2c1Oc1ccc(NC2CN(CCCF)C2)cc1    91
3) Cc1cc(F)cc(C)c1C(=O)c1sc2cc(C(=O)O)ccc2c1Oc1ccc(O[C@H]2CCN(CCCF)C2)cc1    91
4) Cc1cc(F)cc(C)c1C(=O)c1sc2cc(C(=O)O)ccc2c1Oc1ccc(C=C2CN(CCCF)C2)cc1    98
5) Cc1cc(F)cc(C)c1C(=O)c1sc2cc(C(=O)O)ccc2c1Oc1ccc(CC2CN(CCCF)C2)cc1    85
6) Cc1cc(F)cc(C)c1C(=O)c1sc2cc(C(=O)O)ccc2c1Oc1ccc(N[C@H]2CCN(CCCF)C2)cc1    84
